Ref: ChEMBL document CHEMBL1687850

- Target Desc: ATP-dependent translocase ABCB1 (Homo sapiens)
- Assay Explanation: Activity at ABCB1
Measurement Name: Activity

compound_structure=CC(C)Nc1cccnc1N1CCN(C(=O)c2cc3cc(NS(C)(=O)=O)ccc3[nH]2)CC1 target_desc="ATP-dependent translocase ABCB1 (Homo sapiens)" recorded_value="Not Active"
compound_structure=Cc1cc(C#N)cc(C)c1Oc1nc(Nc2ccc(C#N)cc2)nc(N)c1Br target_desc="ATP-dependent translocase ABCB1 (Homo sapiens)" recorded_value="Not Active"
compound_structure=Cc1ccnc2c1NC(=O)c1cccnc1N2C1CC1 target_desc="ATP-dependent translocase ABCB1 (Homo sapiens)" recorded_value="Not Active"

----------
- Target Desc: ATP-dependent translocase ABCB1 (Homo sapiens, UniProt P08183)
- Sequence (P08183 whole entry): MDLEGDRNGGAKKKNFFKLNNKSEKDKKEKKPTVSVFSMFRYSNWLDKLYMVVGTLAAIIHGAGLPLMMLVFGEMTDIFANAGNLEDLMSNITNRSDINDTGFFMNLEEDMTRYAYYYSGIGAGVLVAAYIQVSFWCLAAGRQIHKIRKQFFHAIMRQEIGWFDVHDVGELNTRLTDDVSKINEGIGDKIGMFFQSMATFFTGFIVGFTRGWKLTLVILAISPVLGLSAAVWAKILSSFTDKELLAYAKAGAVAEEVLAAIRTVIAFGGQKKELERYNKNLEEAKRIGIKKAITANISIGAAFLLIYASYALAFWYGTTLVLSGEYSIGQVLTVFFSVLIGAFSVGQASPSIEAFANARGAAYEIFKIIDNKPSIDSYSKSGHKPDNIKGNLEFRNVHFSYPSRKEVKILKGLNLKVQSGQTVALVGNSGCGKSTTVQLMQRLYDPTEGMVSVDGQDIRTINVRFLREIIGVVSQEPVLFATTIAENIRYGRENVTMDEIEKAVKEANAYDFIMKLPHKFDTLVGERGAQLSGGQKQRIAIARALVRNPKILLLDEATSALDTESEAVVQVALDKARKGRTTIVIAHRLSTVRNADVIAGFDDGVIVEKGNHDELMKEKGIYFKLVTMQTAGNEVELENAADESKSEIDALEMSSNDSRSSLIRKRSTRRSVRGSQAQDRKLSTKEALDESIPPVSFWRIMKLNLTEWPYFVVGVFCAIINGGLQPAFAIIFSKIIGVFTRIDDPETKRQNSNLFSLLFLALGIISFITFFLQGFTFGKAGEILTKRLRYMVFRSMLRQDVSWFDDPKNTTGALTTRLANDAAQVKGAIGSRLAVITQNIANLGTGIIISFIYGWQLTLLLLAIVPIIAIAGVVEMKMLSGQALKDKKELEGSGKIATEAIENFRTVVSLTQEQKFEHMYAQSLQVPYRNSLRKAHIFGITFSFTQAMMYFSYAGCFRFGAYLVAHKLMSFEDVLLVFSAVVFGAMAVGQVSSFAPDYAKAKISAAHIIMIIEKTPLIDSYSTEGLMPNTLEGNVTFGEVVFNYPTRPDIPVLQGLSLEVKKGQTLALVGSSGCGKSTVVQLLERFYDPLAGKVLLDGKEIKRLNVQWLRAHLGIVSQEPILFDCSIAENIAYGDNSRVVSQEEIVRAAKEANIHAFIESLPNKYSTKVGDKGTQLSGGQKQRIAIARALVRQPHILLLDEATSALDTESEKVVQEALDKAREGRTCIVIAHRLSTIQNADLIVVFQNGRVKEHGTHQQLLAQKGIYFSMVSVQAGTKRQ
- Assay Explanation: Induction of ABCB1 activity
Measurement Name: Activity

molecule="Cc1cc(C#N)cc(C)c1Oc1nc(Nc2ccc(C#N)cc2)nc(N)c1Br [ETRAVIRINE]" recorded_value=Active
molecule="Cc1ccnc2c1NC(=O)c1cccnc1N2C1CC1 [NEVIRAPINE]" recorded_value=Active
molecule="CC(C)Nc1cccnc1N1CCN(C(=O)c2cc3cc(NS(C)(=O)=O)ccc3[nH]2)CC1 [DELAVIRDINE]" recorded_value=Active
molecule="O=C1Nc2ccc(Cl)cc2[C@@](C#CC2CC2)(C(F)(F)F)O1 [EFAVIRENZ]" recorded_value=Active

----------
- Target Desc: ATP-binding cassette sub-family C member 2 (Homo sapiens)
- Assay Explanation: Inhibition of MRP2 expressed in MDCK2 cells assessed as cell growth inhibition by calcein and pheophorbide A efflux assays
Measurement Name: IC50 (µM)
Note: unit µM is implicit; provide only the numeric part.

Looking up Cc1cc(C#N)cc(C)c1Oc1nc(Nc2ccc(C#N)cc2)nc(N)c1Br , I found its IC50 recorded as 7.8

----------
- Target Desc: ATP-binding cassette sub-family C member 3 (Homo sapiens)
- Assay Explanation: Activity at MRP3
Measurement Name: Activity

compound="Cc1ccnc2c1NC(=O)c1cccnc1N2C1CC1 [NEVIRAPINE]" recorded_value="Not Active"
compound="CC(C)Nc1cccnc1N1CCN(C(=O)c2cc3cc(NS(C)(=O)=O)ccc3[nH]2)CC1 [DELAVIRDINE]" recorded_value="Not Active"
compound="Cc1cc(C#N)cc(C)c1Oc1nc(Nc2ccc(C#N)cc2)nc(N)c1Br [ETRAVIRINE]" recorded_value="Not Active"

----------
- Target Desc: Multidrug resistance-associated protein 1 (Homo sapiens)
- Assay Explanation: Activity at MRP1
Measurement Name: Activity

compound_structure=CC(C)Nc1cccnc1N1CCN(C(=O)c2cc3cc(NS(C)(=O)=O)ccc3[nH]2)CC1 recorded_value="Not Active"
compound_structure=Cc1ccnc2c1NC(=O)c1cccnc1N2C1CC1 recorded_value="Not Active"
compound_structure=Cc1cc(C#N)cc(C)c1Oc1nc(Nc2ccc(C#N)cc2)nc(N)c1Br recorded_value="Not Active"

----------
- Target Desc: ATP-dependent translocase ABCB1 (Homo sapiens)
- Assay Explanation: Inhibition of ABCB1 activity
Measurement Name: inhibition (INH)

compound_structure=O=C1Nc2ccc(Cl)cc2[C@@](C#CC2CC2)(C(F)(F)F)O1 measurement_name="inhibition (INH)" recorded_value=Active
compound_structure=Cc1ccnc2c1NC(=O)c1cccnc1N2C1CC1 measurement_name="inhibition (INH)" recorded_value=Active
compound_structure=CC(C)Nc1cccnc1N1CCN(C(=O)c2cc3cc(NS(C)(=O)=O)ccc3[nH]2)CC1 measurement_name="inhibition (INH)" recorded_value=Active

----------
- Target Desc: Multidrug resistance-associated protein 1 (Homo sapiens, UniProt P33527)
- Sequence (P33527 whole entry): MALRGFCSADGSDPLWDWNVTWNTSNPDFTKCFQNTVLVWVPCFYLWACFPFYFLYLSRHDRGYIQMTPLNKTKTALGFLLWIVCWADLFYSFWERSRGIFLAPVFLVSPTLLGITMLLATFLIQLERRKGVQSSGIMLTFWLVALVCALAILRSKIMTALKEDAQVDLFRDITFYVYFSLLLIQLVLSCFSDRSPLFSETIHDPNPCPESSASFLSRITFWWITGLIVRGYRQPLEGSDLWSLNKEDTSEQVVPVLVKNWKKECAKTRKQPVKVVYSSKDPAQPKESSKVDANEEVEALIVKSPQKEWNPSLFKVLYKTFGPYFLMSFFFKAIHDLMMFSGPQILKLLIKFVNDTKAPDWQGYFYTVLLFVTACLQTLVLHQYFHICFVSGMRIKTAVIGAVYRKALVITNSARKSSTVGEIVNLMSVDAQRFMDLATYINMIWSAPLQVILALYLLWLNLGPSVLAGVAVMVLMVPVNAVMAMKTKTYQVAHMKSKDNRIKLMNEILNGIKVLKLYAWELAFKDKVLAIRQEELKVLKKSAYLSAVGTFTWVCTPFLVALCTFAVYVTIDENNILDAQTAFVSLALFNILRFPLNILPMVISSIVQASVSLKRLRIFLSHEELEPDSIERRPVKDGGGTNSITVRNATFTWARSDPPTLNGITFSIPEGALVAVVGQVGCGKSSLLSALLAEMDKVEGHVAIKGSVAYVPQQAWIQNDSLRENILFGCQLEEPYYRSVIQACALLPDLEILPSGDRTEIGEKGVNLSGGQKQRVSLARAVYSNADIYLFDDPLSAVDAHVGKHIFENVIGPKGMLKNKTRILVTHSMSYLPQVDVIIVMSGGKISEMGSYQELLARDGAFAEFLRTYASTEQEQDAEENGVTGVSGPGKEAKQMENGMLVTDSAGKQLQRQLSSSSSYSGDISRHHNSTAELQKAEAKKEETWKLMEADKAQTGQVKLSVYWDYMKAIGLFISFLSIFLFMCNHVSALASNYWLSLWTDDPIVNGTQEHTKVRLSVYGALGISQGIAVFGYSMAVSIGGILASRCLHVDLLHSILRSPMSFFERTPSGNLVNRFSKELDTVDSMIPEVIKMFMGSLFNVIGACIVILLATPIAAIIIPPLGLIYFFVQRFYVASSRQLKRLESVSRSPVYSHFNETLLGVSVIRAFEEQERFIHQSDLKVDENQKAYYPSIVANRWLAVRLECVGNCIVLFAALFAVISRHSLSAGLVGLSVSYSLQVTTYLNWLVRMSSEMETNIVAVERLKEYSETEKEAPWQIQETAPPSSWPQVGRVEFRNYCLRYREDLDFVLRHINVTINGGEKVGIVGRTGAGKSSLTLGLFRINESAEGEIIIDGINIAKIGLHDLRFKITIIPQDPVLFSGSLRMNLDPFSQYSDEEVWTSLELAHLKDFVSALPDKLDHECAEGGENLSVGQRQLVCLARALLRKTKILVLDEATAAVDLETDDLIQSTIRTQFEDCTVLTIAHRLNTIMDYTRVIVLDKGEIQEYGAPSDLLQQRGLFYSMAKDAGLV
- Assay Explanation: Inhibition of MRP1 expressed in MDCK2 cells assessed as cell growth inhibition by calcein and pheophorbide A efflux assays
Measurement Name: IC50 (µM)
Note: unit µM is implicit; provide only the numeric part.

Looking up Cc1cc(C#N)cc(C)c1Oc1nc(Nc2ccc(C#N)cc2)nc(N)c1Br [ETRAVIRINE] , I found its IC50 recorded as 8.5

----------
- Target Desc: ATP-binding cassette sub-family C member 2 (Homo sapiens, UniProt Q92887)
- Sequence (Q92887 whole entry): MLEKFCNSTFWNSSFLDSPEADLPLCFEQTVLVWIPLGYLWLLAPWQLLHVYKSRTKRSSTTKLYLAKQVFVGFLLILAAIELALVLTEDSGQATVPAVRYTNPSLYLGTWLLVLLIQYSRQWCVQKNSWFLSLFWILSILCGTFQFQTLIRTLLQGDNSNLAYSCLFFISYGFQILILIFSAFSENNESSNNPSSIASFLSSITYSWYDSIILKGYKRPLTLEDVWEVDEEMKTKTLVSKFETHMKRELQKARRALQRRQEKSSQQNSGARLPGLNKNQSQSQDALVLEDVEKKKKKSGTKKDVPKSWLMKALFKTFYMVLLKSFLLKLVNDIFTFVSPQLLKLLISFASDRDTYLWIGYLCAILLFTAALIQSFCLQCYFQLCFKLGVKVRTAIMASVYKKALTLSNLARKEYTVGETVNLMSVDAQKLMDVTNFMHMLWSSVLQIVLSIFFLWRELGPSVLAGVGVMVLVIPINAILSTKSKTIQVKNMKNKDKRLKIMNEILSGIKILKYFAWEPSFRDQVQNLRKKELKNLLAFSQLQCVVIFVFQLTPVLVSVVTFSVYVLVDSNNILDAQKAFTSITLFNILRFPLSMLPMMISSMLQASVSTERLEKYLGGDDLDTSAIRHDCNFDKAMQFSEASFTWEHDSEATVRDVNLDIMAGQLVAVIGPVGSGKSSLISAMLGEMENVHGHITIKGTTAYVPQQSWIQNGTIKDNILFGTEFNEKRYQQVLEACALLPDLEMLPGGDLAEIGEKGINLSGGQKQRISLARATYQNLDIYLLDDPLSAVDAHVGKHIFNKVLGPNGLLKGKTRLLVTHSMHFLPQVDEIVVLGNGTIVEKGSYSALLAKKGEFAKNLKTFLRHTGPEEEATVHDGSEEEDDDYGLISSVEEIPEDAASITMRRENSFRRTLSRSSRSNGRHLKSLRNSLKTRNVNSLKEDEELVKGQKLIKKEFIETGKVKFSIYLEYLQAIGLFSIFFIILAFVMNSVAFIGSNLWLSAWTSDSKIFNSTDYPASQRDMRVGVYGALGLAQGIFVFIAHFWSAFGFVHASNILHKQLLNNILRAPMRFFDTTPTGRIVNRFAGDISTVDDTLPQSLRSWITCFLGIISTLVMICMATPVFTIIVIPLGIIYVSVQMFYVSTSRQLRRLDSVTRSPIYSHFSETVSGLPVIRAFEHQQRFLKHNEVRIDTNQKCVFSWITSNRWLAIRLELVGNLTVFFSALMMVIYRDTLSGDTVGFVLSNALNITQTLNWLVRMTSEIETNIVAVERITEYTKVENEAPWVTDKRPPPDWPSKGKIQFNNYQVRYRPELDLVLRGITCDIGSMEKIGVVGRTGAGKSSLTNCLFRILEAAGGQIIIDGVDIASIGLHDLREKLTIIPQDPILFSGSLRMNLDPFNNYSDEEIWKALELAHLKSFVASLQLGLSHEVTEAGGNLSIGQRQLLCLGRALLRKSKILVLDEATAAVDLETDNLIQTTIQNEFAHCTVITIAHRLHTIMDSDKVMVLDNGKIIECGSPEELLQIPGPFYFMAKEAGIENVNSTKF
- Assay Explanation: Activity at MRP2
Measurement Name: Activity

compound="CC(C)Nc1cccnc1N1CCN(C(=O)c2cc3cc(NS(C)(=O)=O)ccc3[nH]2)CC1 [DELAVIRDINE]" target_desc="ATP-binding cassette sub-family C member 2 (Homo sapiens, UniProt Q92887)" recorded_value="Not Active"
compound="Cc1cc(C#N)cc(C)c1Oc1nc(Nc2ccc(C#N)cc2)nc(N)c1Br [ETRAVIRINE]" target_desc="ATP-binding cassette sub-family C member 2 (Homo sapiens, UniProt Q92887)" recorded_value="Not Active"
compound="Cc1ccnc2c1NC(=O)c1cccnc1N2C1CC1 [NEVIRAPINE]" target_desc="ATP-binding cassette sub-family C member 2 (Homo sapiens, UniProt Q92887)" recorded_value="Not Active"

----------
- Target Desc: Broad substrate specificity ATP-binding cassette transporter ABCG2 (Homo sapiens, UniProt Q9UNQ0)
- Sequence (Q9UNQ0 whole entry): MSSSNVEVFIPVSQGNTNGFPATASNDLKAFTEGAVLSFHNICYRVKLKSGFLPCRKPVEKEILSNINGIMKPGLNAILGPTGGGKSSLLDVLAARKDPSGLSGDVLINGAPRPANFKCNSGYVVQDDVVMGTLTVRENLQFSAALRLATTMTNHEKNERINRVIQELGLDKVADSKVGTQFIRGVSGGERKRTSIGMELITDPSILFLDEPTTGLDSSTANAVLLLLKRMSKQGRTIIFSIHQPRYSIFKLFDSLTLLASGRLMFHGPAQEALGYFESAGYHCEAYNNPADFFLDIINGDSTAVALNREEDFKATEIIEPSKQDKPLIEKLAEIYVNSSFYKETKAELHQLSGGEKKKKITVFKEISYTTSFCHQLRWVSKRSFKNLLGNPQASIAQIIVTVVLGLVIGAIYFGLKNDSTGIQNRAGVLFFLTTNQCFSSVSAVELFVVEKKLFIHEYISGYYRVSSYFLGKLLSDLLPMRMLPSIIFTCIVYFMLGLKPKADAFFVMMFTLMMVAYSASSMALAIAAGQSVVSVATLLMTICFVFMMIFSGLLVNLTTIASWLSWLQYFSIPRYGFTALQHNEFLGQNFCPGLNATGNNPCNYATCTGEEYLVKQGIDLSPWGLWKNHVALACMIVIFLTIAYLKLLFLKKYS
- Assay Explanation: Activity at BCRP
Measurement Name: Activity

compound="Cc1ccnc2c1NC(=O)c1cccnc1N2C1CC1 [NEVIRAPINE]" recorded_value="Not Active"
compound="Cc1cc(C#N)cc(C)c1Oc1nc(Nc2ccc(C#N)cc2)nc(N)c1Br [ETRAVIRINE]" recorded_value="Not Active"
compound="CC(C)Nc1cccnc1N1CCN(C(=O)c2cc3cc(NS(C)(=O)=O)ccc3[nH]2)CC1 [DELAVIRDINE]" recorded_value="Not Active"

----------
- Target Desc: Broad substrate specificity ATP-binding cassette transporter ABCG2 (Homo sapiens)
- Assay Explanation: Inhibition of BCRP expressed in MDCK2 cells assessed as cell growth inhibition by calcein and pheophorbide A efflux assays
Measurement Name: IC50 (µM)
Note: unit µM is implicit; provide only the numeric part.

Looking up Cc1cc(C#N)cc(C)c1Oc1nc(Nc2ccc(C#N)cc2)nc(N)c1Br [ETRAVIRINE] , I found its IC50 recorded as 6

----------
- Target Desc: ATP-dependent translocase ABCB1 (Homo sapiens, UniProt P08183)
- Assay Explanation: Inhibition of MDR1 expressed in MDCK2 cells assessed as inhibition of cell proliferation by calcein and pheophorbide A efflux assays
Measurement Name: pIC50
In textbook form, pIC50 equals minus log to base ten of the concentration in mol/L.

Looking up Cc1cc(C#N)cc(C)c1Oc1nc(Nc2ccc(C#N)cc2)nc(N)c1Br , I found its pIC50 recorded as 5.12
